// data source = the nanobody polyreactivity screen of Harvey et al. (2022)

# experiment notes: yeast display, Sf9 membrane polyspecificity reagent, FACS + sequencing; frameworks hold sequencing errors
outcome measure: polyreactivity (PSR sort gate)

QVQLVESGGGLVQAGGSLRLSCAASGFIFRFYAMGWYRQAPGKERELVAGISSSGGSTYYADSLKGRFTISRDNAKTTVYLQMNSLKPEDTAVYYCNAKRSDQSSKTFNYWGQGTQVTVSS : low polyreactivity
QVQLVESGGGLVQAGGSLRLSCAASGITFDSYALGSYRQAPGKERELVAAISGSGGSTYYADSVKGRFTISRDNAKNTVYLQMNSLKPEDTAVYYCAADWYPTGFYYWGQGTQVTVSS : low polyreactivity

###

# experiment notes: yeast display, Sf9 membrane polyspecificity reagent, FACS + sequencing; frameworks hold sequencing errors
outcome measure: polyreactivity (PSR sort gate)

Completed entries (count: 4):
QVQLVESVGRLVQAGGSLRLSCAASGFIFIFYTMGWYRHAPGKERELVASITSSGGSTYYADSVKGRFTISRDNAKNTVYLQMNSLNPEDTAVYYCAAKKYRSPRGYWGLGTQVTVSS : high polyreactivity
QVQLVESGGGLVQAGGSLRLSCAASGFTLGFYAMGWYRQEPGKERELVAAINWRGGSTYYADSVKGRFTISRDNAKNTVYLLMNSLKPEDTAVYYCNRVYRPSRYDYWGQGTQVTVSS : high polyreactivity
QVQLVESAGGLVQAGGSLRLSCSASGTIIWFYAMGWYRQAPGKERELVAAITRSGGSTYYADSVKGRFTISRDNAKNTVYLQMNSLKPEDTAVYYCAAGTVDYRGYFEMYYWGQGTQVTVSS : low polyreactivity
QVQLVESGGGLVQAGGSLRLSCAASGSISDVYAMGWYRQAPGKERELVAAITSGASTYYADSVKGRFTISRDNAKNTVYLQMNSLKPEDTAVYYCAADSDSQWGMDYWGQGTQVTVSS : low polyreactivity

Next up:
Please fill in: polyreactivity (PSR sort gate) reported for `QVQLVESGGGLVQAGGSLRLSCAASGRTFPSNAMGWYRQAPGKEREFVASITYSGGRTYYADSVKGRFTISRDNAKNTVYLQVNSLKPEDTAVYYCAAYPQFWYLDYNYWGQGTQVTVSS` = high polyreactivity

###

# experiment notes: yeast display, Sf9 membrane polyspecificity reagent, FACS + sequencing; frameworks hold sequencing errors
outcome measure: polyreactivity (PSR sort gate)

QVQLVESGGGLVQAGGSLRLSCAASGYIFDGNAMGLYRQAPGKERELVASISSGTSTYYADSVKGRFTISRDNAKNTVYLQMNSLKPEATAVYYCNAGVEFAASLYYSDNYDYWGQGTQVTVSS : low polyreactivity
QVQLVESGGGLVQAGGSLRLSCAASGRTLSGNAMGWYRPAPGKERELVATITSDGGDTYYADSVKGRFTISRDNPKNTVYLQMNILKPEDTAVYYCNADYAGPKYVGYTFRSFTMDYWGQGTQVTVSS : low polyreactivity
QVQLVESGGGLVQAGGSLRLSCAASGFIITGNPMGWYRQAPGKERELVAAITSGGNTYYADSVKGRFTISRDNANNTVYLQMNSLKPEDTAVYYCAKYVPHWRILMEYWGQGTQVTVSS : low polyreactivity
QVQLEESGGGLVQAGGSLRLSCAASGFTFWRYGMGWYRQAPRKERELVASITSGGGTNYADSVKGRFTISRDNAKNTVYIQMNSLKPEDTAVYYCNAVFFYHGTKPAFISHDYWGQGTQVTVSS : low polyreactivity
QVQLVESGGGLVQAGGSLRLSCAASGRIFYKNDLGWYRQAPGTETELVATLTYSDGTTYYADSVKGRFTISRDNAKNTVYLQMNSLKPEDTAVYYCAAQTDSVESDYWGQGTQVTVSS : low polyreactivity

Please fill in: polyreactivity (PSR sort gate) reported for `QVQLVESGGGLVQAGGSLRLTCAASGSTFRLNAIGWYRQAPGKERELVAAISRSTGTTHYADSVKGRFTISRDNAKHTVYLQMNSLIPEDTAVYYCAAQGGDGVLALYYYWGQGTQVTVSS` = low polyreactivity

Please fill in: polyreactivity (PSR sort gate) reported for `QVQLVESGGALVQAGGSLRLSCAASGSIFDHNAMGWYRQAPGKERELVAAITWSGTSTYYADSVKGRFTISRDNAKNTVYLQMNSLIPEETAVYYCAAYLYGAVRAYPYRWGRYNYWGQGTQVTVSS` = high polyreactivity

Please fill in: polyreactivity (PSR sort gate) reported for `QDQLVESGGGLVQAGGSLRLSCAASGRTFPPYGMGWSRQAPGKERELVAAISKSSGSTNYADSVKGRFTISRDNAKNTVYLQMNSLKPEDTAVYYFNVDLYRWSKLAGAYRMDYWGQGTQVTVSS` = low polyreactivity
